# System: LOX IMVI
# PROCEDURE SUMMARY: Growth inhibition of human LOXIMVI cells assessed as cell growth at 10^-8 M incubated for 48 hrs by sulforhodamine B assay relative to control
# Type: functional
# CONDITION DETAILS: read-out: Activity
ASSAY METRIC: growth at 0.01 µM (%)

> print(dat)
                                 cpd.smiles  value
1  C#C[C@@]1(O)[C@@H](CO)O[C@@H](n2ccc3c(N)ncnc32)[C@@H]1O     98
2  C#C[C@@]1(O)[C@@H](CO)O[C@@H](n2cc(F)c3c(N)ncnc32)[C@@H]1O     96
